Assay System: 12-LOX (Homo sapiens)
Sequence (P18054 whole entry): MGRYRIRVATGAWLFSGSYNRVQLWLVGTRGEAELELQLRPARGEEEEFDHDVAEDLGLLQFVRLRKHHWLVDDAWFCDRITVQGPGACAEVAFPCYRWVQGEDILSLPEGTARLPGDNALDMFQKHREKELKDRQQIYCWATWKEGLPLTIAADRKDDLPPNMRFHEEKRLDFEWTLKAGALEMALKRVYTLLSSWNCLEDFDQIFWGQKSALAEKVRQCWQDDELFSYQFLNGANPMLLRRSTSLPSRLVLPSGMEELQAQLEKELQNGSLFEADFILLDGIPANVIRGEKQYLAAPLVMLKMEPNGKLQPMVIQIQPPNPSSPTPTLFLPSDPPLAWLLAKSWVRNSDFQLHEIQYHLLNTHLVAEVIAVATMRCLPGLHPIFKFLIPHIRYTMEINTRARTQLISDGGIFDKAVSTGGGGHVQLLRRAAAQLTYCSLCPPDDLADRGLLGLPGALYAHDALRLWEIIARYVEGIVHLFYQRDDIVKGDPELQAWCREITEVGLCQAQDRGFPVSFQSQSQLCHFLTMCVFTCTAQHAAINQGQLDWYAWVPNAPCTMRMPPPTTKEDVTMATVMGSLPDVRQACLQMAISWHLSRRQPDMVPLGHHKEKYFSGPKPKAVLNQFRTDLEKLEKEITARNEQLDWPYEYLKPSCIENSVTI
Assay Method Text: Human LOX isozyme specificity screen, 12-LOX
Type: biochemical
Run Conditions: 25 μM inhibitor, 10 μM AA
Recorded Metric: single-point screen inhibition percentage, 12-LOX (%)
Give a bare numeral; the unit % is implied.

Worked examples follow.
Compound	Endpoint Result
CN[C@H]1CC[C@@H](c2ccc(Cl)c(Cl)c2)c2ccccc21.Cl [NCGC00092386]	26
Fc1ccc(C(c2ccc(F)cc2)N2CCN(C/C=C\c3ccccc3)CC2)cc1 [NCGC00018102]	25
O=c1[nH]c2ccccc2n1C1CCN(CCCC(c2ccc(F)cc2)c2ccc(F)cc2)CC1 [NCGC00015802]	50
CC/C(=C(\c1ccccc1)c1ccc(OCCN(C)C)cc1)c1ccccc1 [NCGC00024928]	39
CC(C)(C)c1ccc(C(=O)CCCN2CCC(OC(c3ccccc3)c3ccccc3)CC2)cc1 [NCGC00164603]	33

Then there is this compound:
Value of single-point screen inhibition percentage, 12-LOX reported for the compound O=C1NCN(c2ccccc2)C12CCN(CCCC(c1ccc(F)cc1)c1ccc(F)cc1)CC2 [NCGC00015424] is 63

Values from paper PMC7249612
